# measured_on: prostaglandin E2 type 2 (EP2) receptors (Homo sapiens, UniProt P43116)
# Construct: These full length receptors are used to prepare 293S cells expressing the EP1, EP2, EP3 and EP4 receptors; expressed in transfected cells; membranes
# Sequence (P43116 whole entry): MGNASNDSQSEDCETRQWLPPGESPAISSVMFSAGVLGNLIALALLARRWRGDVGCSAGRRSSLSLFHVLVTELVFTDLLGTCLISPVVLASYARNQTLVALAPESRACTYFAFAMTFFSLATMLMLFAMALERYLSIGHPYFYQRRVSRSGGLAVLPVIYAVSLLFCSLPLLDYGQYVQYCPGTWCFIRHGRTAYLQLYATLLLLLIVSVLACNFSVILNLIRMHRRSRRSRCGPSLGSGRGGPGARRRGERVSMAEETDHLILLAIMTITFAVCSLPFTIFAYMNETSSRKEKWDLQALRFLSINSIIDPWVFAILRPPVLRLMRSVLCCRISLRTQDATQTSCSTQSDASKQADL
# protocol_text: Assay for Binding to Prostaglandin E2 Receptors (3H-prostaglandin E2 displacement, membranes of transfected 293S cells)
# measurement_parameters: concentration displacing 50% of specifically bound 3H-prostaglandin E2, 1 hour at 25° C.
pIC50: −log10 of the molar value.
quantity_measured: pIC50

I. CC(C)OC(=O)N(CCCc1cccc(Cl)c1)CCCc1ccc(C(=O)O)s1
II. CCCCc1ccc(CN(Cc2cccc(CC(=O)O)c2)S(=O)(=O)c2cccs2)cc1
IN: Hi, I'm comparing two records. Which one has the lower pIC50, I or II ? Use the label to indicate which entry you chose.
OUT: I
(I: 6.58, II: 7.02)

P. COc1ccc(OC)c(S(=O)(=O)N(CCCc2cccc(Cl)c2)CCCc2ccc(C(=O)O)s2)c1
Q. O=C(O)COc1cccc(CN(Cc2ccc(-c3nccs3)cc2)S(=O)(=O)c2cccnc2)c1
IN: pIC50 comparison. Which is larger, P or Q ? Use the label to indicate which entry you chose.
OUT: Q
